# Test Protocol: Dissociation constant, pKa of the compound (morpholine)
# Assay type: physicochemical
I'd be grateful if you could share measured pKa for these entries.
One number for each entry.

| Molecular String | pKa |
| --- | --- |
| Cc1c[nH]c2ncnc(O[C@H]3CC[C@H](N4CCOCC4)CC3)c12 | 7.5 |

Query compound follows.
Fill in: pKa of "Cc1c[nH]c2ncnc(O[C@H]3CC[C@H](N4C[C@H]5C[C@@H]4CO5)CC3)c12" is ___
8.1
